# assay: Partition coefficient (logP)
# Format: physicochemical
# condition_description: octanol/water
measurement_name: logP

>>> recorded_result("OC[C@H]1O[C@@H](n2cnc3c(NN4CCCC(O)C4)nc(Cl)nc32)[C@H](O)[C@@H]1O (mixture of isomers)")
-0.82
>>> recorded_result("OC[C@H]1O[C@@H](n2cnc3c(NN4CCC(Oc5ccccc5)CC4)nc(Cl)nc32)[C@H](O)[C@@H]1O")
2.05
>>> recorded_result("OC[C@H]1O[C@@H](n2cnc3c(NN4CCCC4)nc(I)nc32)[C@H](O)[C@@H]1O")
1.42
>>> recorded_result("OC[C@H]1O[C@@H](n2cnc3c(NC4CCCC4)nc(Cl)nc32)[C@H](O)[C@@H]1O")
2.07
>>> recorded_result("OC[C@H]1O[C@@H](n2cnc3c(NN4CCOCC4)nc(Cl)nc32)[C@H](O)[C@@H]1O")
0.11
>>> recorded_result("OC[C@H]1O[C@@H](n2cnc3c(NN4CC=C(c5ccccc5)CC4)nc(Cl)nc32)[C@H](O)[C@@H]1O")
2.28
>>> recorded_result("OC[C@H]1O[C@@H](n2cnc3c(NC4CCCC4)ncnc32)[C@H](O)[C@@H]1O [N6-CYCLOPENTYLADENOSINE]")
0.72
>>> recorded_result("COC[C@H]1CCCN1Nc1nc(Cl)nc2c1ncn2[C@@H]1O[C@H](CO)[C@@H](O)[C@H]1O")
0.32
>>> recorded_result("OC[C@H]1O[C@@H](n2cnc3c(NN4CCCC(Oc5ccccc5)C4)nc(Cl)nc32)[C@H](O)[C@@H]1O (mixture of isomers)")
1.88
>>> recorded_result("COC[C@@H]1CCCN1Nc1nc(Cl)nc2c1ncn2[C@@H]1O[C@H](CO)[C@@H](O)[C@H]1O")
0.32
>>> recorded_result("OC[C@H]1O[C@@H](n2cnc3c(NN4CCC(Sc5ccccc5)CC4)nc(Cl)nc32)[C@H](O)[C@@H]1O")
2.62
>>> recorded_result("OC[C@H]1O[C@@H](n2cnc3c(NN4CCCCC4)nc(Br)nc32)[C@H](O)[C@@H]1O")
0.89
>>> recorded_result("OC[C@H]1O[C@@H](n2cnc3c(NN4CCCCC4)nc(Cl)nc32)[C@H](O)[C@@H]1O")
0.79
>>> recorded_result("OC[C@H]1O[C@@H](n2cnc3c(NN4CCCCCC4)nc(Cl)nc32)[C@H](O)[C@@H]1O")
1.42
>>> recorded_result("OC[C@H]1O[C@@H](n2cnc3c(NN4CCCCC4c4ccccc4)nc(Cl)nc32)[C@H](O)[C@@H]1O (stereo partly specified)")
2.25
>>> recorded_result("OC[C@H]1O[C@@H](n2cnc3c(NN4CCCCC4)nc(F)nc32)[C@H](O)[C@@H]1O")
0.35

----------
# Species on record: Cavia porcellus
# assay: Tested for agonistic potency to inhibit contractile force in isolated guinea pig atria
# Format: functional
pIC50: −log10 of the molar value.
# pIC50 annotations
measurement_name: pIC50

>>> recorded_result("OC[C@H]1O[C@@H](n2cnc3c(NN4CCC(c5ccccc5)CC4)nc(Cl)nc32)[C@H](O)[C@@H]1O")
6.49
>>> recorded_result("OC[C@H]1O[C@@H](n2cnc3c(NN4CCCCC4)nc(Cl)nc32)[C@H](O)[C@@H]1O")
6.24
>>> recorded_result("OC[C@H]1O[C@@H](n2cnc3c(NN4CCCC(O)C4)nc(Cl)nc32)[C@H](O)[C@@H]1O (mixture of isomers)")
6.33
>>> recorded_result("OC[C@H]1O[C@@H](n2cnc3c(NN4CCC(Sc5ccccc5)CC4)nc(Cl)nc32)[C@H](O)[C@@H]1O")
6.19
>>> recorded_result("OC[C@H]1O[C@@H](n2cnc3c(NN4CCCC(Oc5ccccc5)C4)nc(Cl)nc32)[C@H](O)[C@@H]1O (mixture of isomers)")
5.35
>>> recorded_result("OC[C@H]1O[C@@H](n2cnc3c(NN4CCC(Oc5ccccc5)CC4)nc(Cl)nc32)[C@H](O)[C@@H]1O")
6.72

----------
# pKi annotations
# target_or_system: Adenosine receptor A1 (Rattus norvegicus)
# Sequence (P25099 whole entry): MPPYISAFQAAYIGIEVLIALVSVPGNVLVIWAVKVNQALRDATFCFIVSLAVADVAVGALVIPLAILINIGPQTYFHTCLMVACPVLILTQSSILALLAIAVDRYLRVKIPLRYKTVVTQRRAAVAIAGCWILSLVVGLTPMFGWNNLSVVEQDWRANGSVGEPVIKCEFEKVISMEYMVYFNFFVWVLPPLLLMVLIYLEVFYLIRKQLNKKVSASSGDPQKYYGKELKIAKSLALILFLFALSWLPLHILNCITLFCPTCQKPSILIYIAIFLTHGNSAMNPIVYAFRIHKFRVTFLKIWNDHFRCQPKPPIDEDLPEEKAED
pKi: −log10 of the molar value.
measurement_name: pKi

>>> recorded_result("OC[C@H]1O[C@@H](n2cnc3c(NN4CCCC(Sc5ccccc5)C4)nc(Cl)nc32)[C@H](O)[C@@H]1O (mixture of isomers)")
7.89
>>> recorded_result("COC[C@H]1CCCN1Nc1nc(Cl)nc2c1ncn2[C@@H]1O[C@H](CO)[C@@H](O)[C@H]1O")
7.96
>>> recorded_result("OC[C@H]1O[C@@H](n2cnc3c(NN4CCCCC4c4ccccc4)nc(Cl)nc32)[C@H](O)[C@@H]1O (stereo partly specified)")
7.47
>>> recorded_result("OC[C@H]1O[C@@H](n2cnc3c(NN4CCC(c5ccccc5)CC4)nc(Cl)nc32)[C@H](O)[C@@H]1O")
7.96
>>> recorded_result("OC[C@H]1O[C@@H](n2cnc3c(NN4CCC(Oc5ccccc5)CC4)nc(Cl)nc32)[C@H](O)[C@@H]1O")
8.85
>>> recorded_result("OC[C@H]1O[C@@H](n2cnc3c(NN4CCCC4)nc(I)nc32)[C@H](O)[C@@H]1O")
4.89

----------
# target_or_system: Adenosine A2 receptor (Rattus norvegicus, UniProt P29276+P30543)
# assay: Tested for inhibition of adenosine A2 receptor binding to rat brain
measurement_name: Ki

>>> recorded_result("OC[C@H]1O[C@@H](n2cnc3c(NN4CCOCC4)nc(Cl)nc32)[C@H](O)[C@@H]1O")
"1.04 µM"
>>> recorded_result("OC[C@H]1O[C@@H](n2cnc3c(NN4CCCC(Sc5ccccc5)C4)nc(Cl)nc32)[C@H](O)[C@@H]1O (mixture of isomers)")
"1.38 µM"
>>> recorded_result("OC[C@H]1O[C@@H](n2cnc3c(NN4CCN(c5ccccc5)CC4)nc(Cl)nc32)[C@H](O)[C@@H]1O")
"5.571 µM"
>>> recorded_result("OC[C@H]1O[C@@H](n2cnc3c(NN4CCCCC4)nc(Br)nc32)[C@H](O)[C@@H]1O")
"1.52 µM"
>>> recorded_result("OC[C@H]1O[C@@H](n2cnc3c(NN4CCCC4)nc(I)nc32)[C@H](O)[C@@H]1O")
"57 µM"
>>> recorded_result("CN1CCN(Nc2nc(Cl)nc3c2ncn3[C@@H]2O[C@H](CO)[C@@H](O)[C@H]2O)CC1")
"> 30 µM"
>>> recorded_result("COC[C@H]1CCCN1Nc1nc(Cl)nc2c1ncn2[C@@H]1O[C@H](CO)[C@@H](O)[C@H]1O")
"0.459 µM"
>>> recorded_result("OC[C@H]1O[C@@H](n2cnc3c(NN4CCCCC4c4ccccc4)nc(Cl)nc32)[C@H](O)[C@@H]1O (stereo partly drawn)")
"0.017 µM"

----------
# assay: Partition coefficient (logP)
# Assay type: physicochemical
# condition_description: octanol/water
# logP annotations
measurement_name: logP

>>> recorded_result("OC[C@H]1O[C@@H](n2cnc3c(NN4CCCCC4)ncnc32)[C@H](O)[C@@H]1O")
1.28
>>> recorded_result("OC[C@H]1O[C@@H](n2cnc3c(NN4CCN(c5ccccc5)CC4)nc(Cl)nc32)[C@H](O)[C@@H]1O")
1.42
>>> recorded_result("Nc1nc(NN2CCCCC2)c2ncn([C@@H]3O[C@H](CO)[C@@H](O)[C@H]3O)c2n1")
-0.55
>>> recorded_result("OC[C@H]1O[C@@H](n2cnc3c(NN4CCCC(Sc5ccccc5)C4)nc(Cl)nc32)[C@H](O)[C@@H]1O (mixture of isomers)")
2.89
>>> recorded_result("CC1CCCC(C)N1Nc1nc(Cl)nc2c1ncn2[C@@H]1O[C@H](CO)[C@@H](O)[C@H]1O (stereo partly drawn)")
1.38
>>> recorded_result("OC[C@H]1O[C@@H](n2cnc3c(NN4CCC(c5ccccc5)CC4)nc(Cl)nc32)[C@H](O)[C@@H]1O")
2.36
>>> recorded_result("CN1CCN(Nc2nc(Cl)nc3c2ncn3[C@@H]2O[C@H](CO)[C@@H](O)[C@H]2O)CC1")
0.11
>>> recorded_result("CSc1nc(NN2CCCCC2)c2ncn([C@@H]3O[C@H](CO)[C@@H](O)[C@H]3O)c2n1")
0.89

----------
# Species on record: Cavia porcellus
# assay: Tested for agonistic potency to inhibit contractile force in isolated guinea pig atria
# Type: functional
pIC50: −log10 of the molar value.
measurement_name: pIC50

>>> recorded_result("OC[C@H]1O[C@@H](n2cnc3c(NN4CCCCC4)nc(F)nc32)[C@H](O)[C@@H]1O")
5.89
>>> recorded_result("OC[C@H]1O[C@@H](n2cnc3c(NN4CC=C(c5ccccc5)CC4)nc(Cl)nc32)[C@H](O)[C@@H]1O")
5.54
>>> recorded_result("OC[C@H]1O[C@@H](n2cnc3c(NC4CCCC4)ncnc32)[C@H](O)[C@@H]1O")
6.38
>>> recorded_result("O=S(=O)(c1ccccc1)C1CCN(Nc2nc(Cl)nc3c2ncn3[C@@H]2O[C@H](CO)[C@@H](O)[C@H]2O)CC1")
6.49
